Source: patent US9446026B2

# method: Ocular fluid and tissue concentrations, 0.4% Compound-I cyclodextrin solutions (Example 7, 24-day study)
# Assay type: in vivo, Dutch-Belted rabbits
# assay_conditions: Dutch-Belted, rabbit, aqueous humor, topical, 0.4 % (4 mg/mL), 30 μL/eye, Average concentration of Compound-I, Aqueous Humor, Group 10: 0.4% Compound-I in 4.88% CAPTISOL, 0.142% phosphate; 30 μL/eye, 2 doses per day
observation_type: concentration at 1 h (nM)
Numbers only, in nM.

Consider the molecule Cl.NC(=O)c1c(OCc2c(F)cc(Br)cc2F)nsc1NC(=O)NCCCCN1CCCC1 [Compound-I, hydrochloride] and give its recorded concentration at 1 h.
1.84

---

# method: Ocular fluid and tissue concentrations, 0.4% Compound-I cyclodextrin solutions (Example 7, 24-day study)
# Assay type: in vivo, Dutch-Belted rabbits
# assay_conditions: Dutch-Belted, rabbit, cornea, topical, 0.4 % (4 mg/mL), 0.4% Ophthalmic Solution (KLEPTOSE HPB), Twice Daily 24 days; read-out: Cornea [Compound I]
observation_type: concentration at 1 h (µM)
Answers are plain numbers, in µM.

Consider the compound Cl.NC(=O)c1c(OCc2c(F)cc(Br)cc2F)nsc1NC(=O)NCCCCN1CCCC1 [Compound-I, hydrochloride] and give its recorded concentration at 1 h.
12.3

---

# method: Ocular fluid and tissue concentrations, 0.4% Compound-I cyclodextrin solutions (Example 7, 24-day study)
# Format: in vivo, Dutch-Belted rabbits
# assay_conditions: Dutch-Belted, rabbit, cornea, topical, 0.4 % (4 mg/mL), 30 μL/eye, Average concentration of Compound-I, Cornea, Group 8: 0.4% Compound-I in 8.41% KLEPTOSE HPB, 0.142% phosphate; 30 μL/eye, 2 doses per day
observation_type: concentration at 1 h (µM)
Numbers only, in µM.

Consider the molecule Cl.NC(=O)c1c(OCc2c(F)cc(Br)cc2F)nsc1NC(=O)NCCCCN1CCCC1 [Compound-I, hydrochloride] and give its recorded concentration at 1 h.
12.3

---

# method: Ocular fluid and tissue concentrations, 0.4% Compound-I cyclodextrin solutions (Example 7, 24-day study)
# Format: in vivo, Dutch-Belted rabbits
# assay_conditions: Dutch-Belted, rabbit, cornea, topical, 0.4 % (4 mg/mL), 0.4% Ophthalmic Solution (CAPTISOL), Twice Daily 24 days; read-out: Cornea [Compound I]
# Experimental: The ocular solution of Compound-I comprising cyclodextrin was prepared and tested in different groups of animals.
observation_type: concentration at 1 h (µM)
Numbers only, in µM.

Consider the compound Cl.NC(=O)c1c(OCc2c(F)cc(Br)cc2F)nsc1NC(=O)NCCCCN1CCCC1 [Compound-I, hydrochloride] and give its recorded concentration at 1 h.
6.49

---

# method: pKa (water) of Compound-I drug substance
# Type: physicochemical
# Source text: The embodiments provide three formulations of Compound-I or its free base—the Formula II compound.
observation_type: pKa
One number for each entry.

Consider the compound Cl.NC(=O)c1c(OCc2c(F)cc(Br)cc2F)nsc1NC(=O)NCCCCN1CCCC1 [Compound-I, hydrochloride] and give its recorded pKa.
10.5

---

# measured_target: FGFR-2 (Homo sapiens (Human), UniProt P21802)
# Sequence (P21802 22-821): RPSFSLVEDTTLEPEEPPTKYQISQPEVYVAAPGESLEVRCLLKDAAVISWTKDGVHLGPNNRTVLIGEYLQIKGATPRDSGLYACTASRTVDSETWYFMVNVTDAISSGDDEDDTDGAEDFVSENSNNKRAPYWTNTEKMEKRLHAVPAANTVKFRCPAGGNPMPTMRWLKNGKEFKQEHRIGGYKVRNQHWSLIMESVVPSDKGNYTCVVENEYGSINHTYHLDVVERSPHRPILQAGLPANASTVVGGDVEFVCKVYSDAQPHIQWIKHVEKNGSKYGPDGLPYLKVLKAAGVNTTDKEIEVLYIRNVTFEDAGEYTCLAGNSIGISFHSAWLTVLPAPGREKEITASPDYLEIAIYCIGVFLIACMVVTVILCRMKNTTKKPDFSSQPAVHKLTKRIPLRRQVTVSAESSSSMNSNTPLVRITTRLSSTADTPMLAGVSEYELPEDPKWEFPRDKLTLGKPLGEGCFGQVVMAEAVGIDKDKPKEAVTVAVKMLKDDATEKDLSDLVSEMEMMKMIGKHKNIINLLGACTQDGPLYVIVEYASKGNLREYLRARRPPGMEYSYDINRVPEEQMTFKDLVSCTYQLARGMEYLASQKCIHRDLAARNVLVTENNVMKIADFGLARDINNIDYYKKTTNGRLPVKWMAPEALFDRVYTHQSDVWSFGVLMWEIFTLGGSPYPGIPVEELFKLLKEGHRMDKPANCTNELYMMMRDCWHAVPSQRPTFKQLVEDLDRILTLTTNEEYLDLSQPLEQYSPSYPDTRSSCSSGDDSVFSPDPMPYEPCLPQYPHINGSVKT
observation_type: pIC50
Give bare numbers, as −log10 of the molar value.

Consider the compound Cl.NC(=O)c1c(OCc2c(F)cc(Br)cc2F)nsc1NC(=O)NCCCCN1CCCC1 [Compound-I, hydrochloride] and give its recorded pIC50.
8.51

---

# method: Ocular fluid and tissue concentrations, 0.4% Compound-I cyclodextrin solutions (Example 7, 24-day study)
# Format: in vivo, Dutch-Belted rabbits
# assay_conditions: Dutch-Belted, rabbit, aqueous humor, topical, 0.4 % (4 mg/mL), 30 μL/eye, Average concentration of Compound-I, Aqueous Humor, Group 11: 0.4% Compound-I in 4.88% CAPTISOL, […] phosphate; 30 μL/eye, 2 doses per day
observation_type: concentration at 1 h
# include the unit after the value

Consider the compound Cl.NC(=O)c1c(OCc2c(F)cc(Br)cc2F)nsc1NC(=O)NCCCCN1CCCC1 [Compound-I, hydrochloride] and give its recorded concentration at 1 h.
4.03 nM

---

# measured_target: FGFR-4 (Homo sapiens (Human), UniProt P22455)
# Sequence (P22455 22-802): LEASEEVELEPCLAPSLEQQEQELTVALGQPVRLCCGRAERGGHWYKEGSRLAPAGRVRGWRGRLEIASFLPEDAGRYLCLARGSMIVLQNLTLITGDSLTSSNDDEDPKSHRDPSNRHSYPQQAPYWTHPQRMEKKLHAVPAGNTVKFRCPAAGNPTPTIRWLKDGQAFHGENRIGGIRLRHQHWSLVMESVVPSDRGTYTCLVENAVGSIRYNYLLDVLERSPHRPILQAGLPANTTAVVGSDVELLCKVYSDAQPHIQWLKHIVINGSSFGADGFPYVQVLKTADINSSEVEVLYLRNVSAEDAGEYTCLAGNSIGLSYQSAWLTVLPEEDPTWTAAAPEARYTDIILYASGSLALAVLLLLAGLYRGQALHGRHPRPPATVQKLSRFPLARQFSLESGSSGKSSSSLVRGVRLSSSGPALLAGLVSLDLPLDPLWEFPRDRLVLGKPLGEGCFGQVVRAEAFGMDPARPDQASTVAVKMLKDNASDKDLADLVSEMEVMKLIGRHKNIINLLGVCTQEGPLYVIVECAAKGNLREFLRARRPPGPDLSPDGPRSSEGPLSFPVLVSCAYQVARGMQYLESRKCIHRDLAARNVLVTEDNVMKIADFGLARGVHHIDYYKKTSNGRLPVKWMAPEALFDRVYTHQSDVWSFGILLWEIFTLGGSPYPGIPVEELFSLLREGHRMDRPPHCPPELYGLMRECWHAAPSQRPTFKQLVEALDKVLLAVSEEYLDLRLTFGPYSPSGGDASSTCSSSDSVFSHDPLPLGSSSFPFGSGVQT
observation_type: pIC50
Numbers only, as −log10 of the molar value.

Consider the molecule Cl.NC(=O)c1c(OCc2c(F)cc(Br)cc2F)nsc1NC(=O)NCCCCN1CCCC1 [Compound-I, hydrochloride] and give its recorded pIC50.
6.30

---

# method: Ocular fluid and tissue concentrations, 0.4% Compound-I cyclodextrin solutions (Example 7, 24-day study)
# Assay type: in vivo, Dutch-Belted rabbits
# assay_conditions: Dutch-Belted, rabbit, central choroid, topical, 0.4 %
observation_type: concentration at 1 h

Consider the compound Cl.NC(=O)c1c(OCc2c(F)cc(Br)cc2F)nsc1NC(=O)NCCCCN1CCCC1 [Compound-I, hydrochloride] and give its recorded concentration at 1 h.
259 to 769 nM

---

# method: Solubility of Compound-I drug substance
# Format: physicochemical
# assay_conditions: deionized water, water
observation_type: solubility

Consider the compound Cl.NC(=O)c1c(OCc2c(F)cc(Br)cc2F)nsc1NC(=O)NCCCCN1CCCC1 and give its recorded solubility.
500 to 1200 µg/mL

---

# method: Ocular fluid and tissue concentrations, 0.4% Compound-I cyclodextrin solutions (Example 7, 24-day study)
# Type: in vivo, Dutch-Belted rabbits
# assay_conditions: Dutch-Belted, rabbit, central retina, topical, 0.4 %, Central retina concentration of Compound-I (range over groups), 0.4% Compound-I cyclodextrin solutions (KLEPTOSE or CAPTISOL), twice daily
observation_type: concentration at 1 h

Consider the compound Cl.NC(=O)c1c(OCc2c(F)cc(Br)cc2F)nsc1NC(=O)NCCCCN1CCCC1 [Compound-I, hydrochloride] and give its recorded concentration at 1 h.
53.1 to 124 nM

---

# method: Ocular fluid and tissue concentrations, 0.4% Compound-I cyclodextrin solutions (Example 7, 24-day study)
# Type: in vivo, Dutch-Belted rabbits
# assay_conditions: Dutch-Belted, rabbit, central choroid, topical, 0.4 % (4 mg/mL), 30 μL/eye, Average concentration of Compound-I, Central Choroid, Group 8: 0.4% Compound-I in 8.41% KLEPTOSE HPB, 0.142% phosphate; 30 μL/eye, 2 doses per day
observation_type: concentration at 1 h (nM)
One number for each entry, in nM.

Consider the compound Cl.NC(=O)c1c(OCc2c(F)cc(Br)cc2F)nsc1NC(=O)NCCCCN1CCCC1 [Compound-I, hydrochloride] and give its recorded concentration at 1 h.
769

---

# method: Solubility of Compound-I drug substance
# Type: physicochemical
# assay_conditions: aqueous buffer; pH 9.0 (0.05m Na2HPO4)
observation_type: solubility (µg/mL)
One number for each entry, in µg/mL.

Consider the compound Cl.NC(=O)c1c(OCc2c(F)cc(Br)cc2F)nsc1NC(=O)NCCCCN1CCCC1 and give its recorded solubility.
700

---

# method: Ocular fluid and tissue concentrations, 0.4% Compound-I cyclodextrin solutions (Example 7, 24-day study)
# Assay type: in vivo, Dutch-Belted rabbits
# assay_conditions: Dutch-Belted, rabbit, central choroid, topical, 0.4 % (4 mg/mL), 0.4% Ophthalmic Solution (KLEPTOSE HPB), Twice Daily 24 days; read-out: Central Choroid [Compound I]
observation_type: concentration at 1 h
# include the unit after the value

Consider the compound Cl.NC(=O)c1c(OCc2c(F)cc(Br)cc2F)nsc1NC(=O)NCCCCN1CCCC1 [Compound-I, hydrochloride] and give its recorded concentration at 1 h.
769 nM

---

# method: Ocular tissue concentrations, 0.3% Compound-I Tris-based suspension twice daily 30 days
# Format: in vivo, Dutch-Belted rabbits
# assay_conditions: Dutch-Belted, rabbit, peripheral choroid, topical; 0.3% Tris-based suspensions with and without benzylalkonium chloride, twice daily, 1 hour after first daily dose on day 30; read-out: Mean ocular tissue concentration, peripheral choroid
observation_type: concentration at 1 h

Consider the compound Cl.NC(=O)c1c(OCc2c(F)cc(Br)cc2F)nsc1NC(=O)NCCCCN1CCCC1 [Compound-I, hydrochloride] and give its recorded concentration at 1 h.
781 to 1210 nM

---

# method: Solubility of Compound-I drug substance
# Type: physicochemical
# assay_conditions: acetonitrile, organic solvent or mixture
observation_type: solubility (mg/mL)
Give bare numbers, in mg/mL.

Consider the molecule Cl.NC(=O)c1c(OCc2c(F)cc(Br)cc2F)nsc1NC(=O)NCCCCN1CCCC1 and give its recorded solubility.
0.04

---

# method: Ocular fluid and tissue concentrations, 0.4% Compound-I cyclodextrin solutions (Example 7, 24-day study)
# Assay type: in vivo, Dutch-Belted rabbits
# assay_conditions: Dutch-Belted, rabbit, central retina, topical, 0.4 % (4 mg/mL), 30 μL/eye, Average concentration of Compound-I, Central Retina, Group 9: 0.4% Compound-I in […] KLEPTOSE HPB, 0.142% phosphate; 30 μL/eye, 2 doses per day
observation_type: concentration at 1 h
# include the unit after the value

Consider the molecule Cl.NC(=O)c1c(OCc2c(F)cc(Br)cc2F)nsc1NC(=O)NCCCCN1CCCC1 [Compound-I, hydrochloride] and give its recorded concentration at 1 h.
74.1 nM
